Listed below: fold induction at 0.031 mg/ml values for each entry.
- TEST SUMMARY: Genotoxicity in Salmonella typhimurium TA1535 harboring pSK1002 assessed as umu gene induction at 0.031 mg/ml in presence of Sprague-Dawley rat liver S9 fraction after by SOS/umu assay relative to control
- Format: toxicity, organism-based
- CONDITION PARAMETERS: salmonella enterica subsp. enterica serovar typhimurium, read-out: FC
Hey, just send me the number, nothing else.

Take a look at these entries with their results.
- N#Cc1ccc(N2CCC(NCCC(O)c3ccc(F)c4ccccc34)CC2)c(Br)c1 (stereo not drawn): 1.2
- OC(CCN1CCN(c2ccc(F)cc2)CC1)c1ccc(F)c2ccccc12 (stereo not drawn): 0.5
- N#Cc1ccc(C(O)CCN2CC=C(c3ccc(F)cc3)CC2)cc1 (stereo not drawn): 0.8

Reported fold induction at 0.031 mg/ml for OC(CCN1CCN(c2ccccc2C(F)(F)F)CC1)c1ccc(F)c2ccccc12 (stereo in doubt; 55) was 0.7

Reported fold induction at 0.031 mg/ml for O=[N+]([O-])c1ccc(N2CCN(CCC(O)c3ccc(F)c4ccccc34)CC2)cc1 (stereo not drawn) was 0.5

Reported fold induction at 0.031 mg/ml for OC(CCN1CCN(c2ccccc2C(F)(F)F)CC1)c1ccc(F)cc1 (stereo not drawn) was 1

Reported fold induction at 0.031 mg/ml for OC(CCN1CCN(C(c2ccccc2)c2ccccc2)CC1)c1ccc(F)c(F)c1 (stereo not drawn) was 0.8

Reported fold induction at 0.031 mg/ml for OC(CCN1CCN(C(c2ccccc2)c2ccccc2)CC1)c1ccc(F)c2ccccc12 (stereo not drawn) was 1.2

----------
- TEST SUMMARY: Cytotoxicity against human HepG2A16 cells by MTT assay
- Assay type: cell-based
- CONDITION PARAMETERS: HepG2A16 cells
Labelling: CC50 reported below 80 µM becomes Criterion met; at or above becomes Criterion not met.

Below, 3 compounds whose answers are already recorded.
• OC(CCN1CC=C(c2ccc(F)cc2)CC1)c1ccc(F)c(F)c1 (configuration not stated) = Criterion not met
• COc1ccccc1N1CCN(CCC(O)c2ccccc2)CC1 (configuration not stated) = Criterion not met
• COC(=O)c1ccc(C(O)CCN2CC=C(c3ccc(F)cc3)CC2)cc1 (configuration not stated) = Criterion not met

Enquiry: Here's an entry: N#Cc1ccc(C(O)CCNC2CCN(c3ccc([N+](=O)[O-])cc3C(F)(F)F)CC2)cc1 (configuration not stated) . Is its CC50 below 80 µM?
Return: Criterion met

----------
Listed below: fold induction at 0.031 mg/ml values for each entry.
- TEST SUMMARY: Genotoxicity in Salmonella typhimurium TA1535 harboring pSK1002 assessed as umu gene induction at 0.031 mg/ml in absence of Sprague-Dawley rat liver S9 fraction after by SOS/umu assay relative to control
- Type: toxicity, organism-based
- CONDITION PARAMETERS: salmonella enterica subsp. enterica serovar typhimurium, read-out: FC
Hey, just send me the number, nothing else.

Take a look at these entries with their results.
* OC(CCN1CCN(c2ccccc2C(F)(F)F)CC1)c1ccc(F)cc1 (stereo not given) | 0.8
* COc1ccccc1N1CCN(CCC(O)c2ccc(F)c3ccccc23)CC1 (stereo not given) | 1.3
* Nc1ccc(N2CCC(NCCC(O)c3ccc(F)c4ccccc34)CC2)c(C(F)(F)F)c1 (stereo not given) | 0.7
* O=[N+]([O-])c1ccc(N2CCN(CCC(O)c3ccc(F)c4ccccc34)CC2)cc1 (stereo not given) | 0.8

Now consider a different molecule.
Reported fold induction at 0.031 mg/ml for COc1ccccc1N1CCN(CCC(O)c2ccc(F)cc2)CC1 (stereo in doubt; 66) was 1

----------
- TEST SUMMARY: Cytotoxicity against human HepG2A16 cells
- Type: cell-based
MEASURED PARAMETER: log10(CC50) (log10 of the value in µM)
Recall that a logarithmic scale is used here: each number is log10 of CC50 in µM.

Take a look at these entries with their results.
* N#Cc1ccc(N2CCC(NCCC(O)c3ccc(F)c4ccccc34)CC2)c(C(F)(F)F)c1 (stereo in doubt; (-)-72) | 1.44
* OC(CCN1CCN(c2ccccc2C(F)(F)F)CC1)c1ccc(F)c2ccccc12 (single isomer, unassigned; (-)) | 1.79
* N#Cc1ccc(N2CCC(NCCC(O)c3ccc(F)c4ccccc34)CC2)c(C(F)(F)F)c1 (single isomer, unassigned; (+)) | 1.90
* O=[N+]([O-])c1ccc(N2CCC(NCCC(O)c3ccc(F)c4ccccc34)CC2)c(C(F)(F)F)c1 (single isomer, unassigned; (+)) | 1.58

Now consider a different molecule.
Reported log10(CC50) for O=[N+]([O-])c1ccc(N2CCC(NCCC(O)c3ccc(F)c4ccccc34)CC2)c(C(F)(F)F)c1 (single isomer, unassigned; (-)) was 0.62

----------
- TEST SUMMARY: Selectivity index, ratio of CC50 for human HepG2A16 cells by MTT assay to IC50 for multidrug-resistant Plasmodium falciparum FCR-3
- Assay type: toxicity
- CONDITION PARAMETERS: HepG2A16 cells, read-out: Ratio CC50/IC50
MEASURED PARAMETER: selectivity ratio
Hey, just send me the number, nothing else.

- OC(CCN1CCN(C(c2ccccc2)c2ccccc2)CC1)c1ccc2c(c1)OCO2 (stereo not given): 25

Reported selectivity ratio for O=[N+]([O-])c1ccc(N2CCC(NCCC(O)c3ccc(F)c(Cl)c3)CC2)c(C(F)(F)F)c1 (stereo not given) was 9

Reported selectivity ratio for OC(CCN1CC=C(c2ccc(F)cc2)CC1)c1ccc(Br)cc1 (stereo not given) was 41

Reported selectivity ratio for COC(=O)c1ccc(C(O)CCN2CC=C(c3ccc(F)cc3)CC2)cc1 (stereo not given) was 451

Reported selectivity ratio for COc1ccccc1N1CCN(CCC(O)c2ccc(-c3ccccc3)cc2)CC1 (stereo not given) was 9

----------
- TEST SUMMARY: Genotoxicity in Salmonella typhimurium TA1535 harboring pSK1002 assessed as umu gene induction at 1 mg/ml in absence of Sprague-Dawley rat liver S9 fraction after by SOS/umu assay relative to control
- Assay type: toxicity, organism-based
- CONDITION PARAMETERS: salmonella enterica subsp. enterica serovar typhimurium, read-out: FC
Listed below: fold induction at 1 mg/ml values for each entry.

Take a look at these entries with their results.
• OC(CCN1CCN(c2ccccc2C(F)(F)F)CC1)c1ccc(F)c2ccccc12 (stereo in doubt; 55) = 0.3
• OC(CCN1CCN(c2ccccc2C(F)(F)F)CC1)c1ccc(F)cc1 (stereo not drawn) = 0.1

Now consider a different compound.
Reported fold induction at 1 mg/ml for COc1ccccc1C1=CCN(CCC(O)c2ccc(F)cc2)CC1 (stereo not drawn) was 0.3

----------
- TEST SUMMARY: Selectivity index, ratio of CC50 for human HepG2A16 cells to IC50 for multidrug-resistant Plasmodium falciparum FCR-3
- Format: toxicity
- CONDITION PARAMETERS: HepG2A16 cells, read-out: Ratio CC50/IC50
MEASURED PARAMETER: selectivity ratio
Hey, just send me the number, nothing else.

Reported selectivity ratio for OC(CCN1CCN(c2ccccc2C(F)(F)F)CC1)c1ccc(F)c2ccccc12 (single isomer, unassigned; (+)) was 172

----------
- TEST SUMMARY: Genotoxicity in Salmonella typhimurium TA1535 harboring pSK1002 assessed as umu gene induction at 0.004 mg/ml in presence of Sprague-Dawley rat liver S9 fraction after by SOS/umu assay relative to control
- Format: toxicity, organism-based
- CONDITION PARAMETERS: salmonella enterica subsp. enterica serovar typhimurium, read-out: FC
Listed below: fold induction at 0.004 mg/ml values for each entry.
Hey, just send me the number, nothing else.

- OC(CCN1CCN(C(c2ccccc2)c2ccccc2)CC1)c1ccc(F)c(F)c1 (stereo not drawn): 0.9
- Nc1ccc(N2CCC(NCCC(O)c3ccc(F)c4ccccc34)CC2)c(C(F)(F)F)c1 (stereo not drawn): 1.1
- N#Cc1ccc(C(O)CCN2CC=C(c3ccc(F)cc3)CC2)cc1 (stereo not drawn): 0.8
- OC(CCN1CCN(c2ccccc2C(F)(F)F)CC1)c1ccc(F)c2ccccc12 (stereo in doubt; 55): 0.5
- OC(CCN1CC=C(c2ccc(F)cc2)CC1)c1ccc2c(c1)OCO2 (stereo not drawn): 0.9

Reported fold induction at 0.004 mg/ml for OC(CCN1CCN(C(c2ccccc2)c2ccccc2)CC1)c1ccc(Cl)cc1 (stereo not drawn) was 1

Reported fold induction at 0.004 mg/ml for OC(CCN1CCN(C(c2ccccc2)c2ccccc2)CC1)c1ccc(F)cc1 (stereo not drawn) was 1

Reported fold induction at 0.004 mg/ml for COC(=O)c1ccc(C(O)CCN2CC=C(c3ccc(F)cc3)CC2)cc1 (stereo not drawn) was 0.9

Reported fold induction at 0.004 mg/ml for OC(CCN1CCN(C(c2ccccc2)c2ccccc2)CC1)c1ccc(F)c(Cl)c1 (stereo not drawn) was 1.2

Reported fold induction at 0.004 mg/ml for O=[N+]([O-])c1ccc(N2CCN(CCC(O)c3ccc(F)c4ccccc34)CC2)cc1 (stereo not drawn) was 0.9
